molecular target: purified HLA-DRB1*0101 (Homo sapiens, UniProt P01903+P01911, A100R/D57E/F55L/F60I/F76Y/I96L/L162R/M171V/P40L/Q125E/R42F/V115G/Y59C); test: biochemical
Where a SMILES comes first, the peptide text is derived from it.
measurement_name: IC50 (nM)
Give bare numbers, in nM.

CC[C@H](C)[C@H](NC(=O)[C@H](CS)NC(=O)[C@H](CC(=O)O)NC(=O)[C@@H](N)CCSC)C(=O)N[C@H](C(=O)N[C@@H](Cc1ccccc1)C(=O)N[C@@H](CCC(=O)O)C(=O)N[C@@H](CO)C(=O)N[C@@H](C)C(=O)N[C@@H](CO)C(=O)N[C@@H](CCCCN)C(=O)N[C@@H](C)C(=O)N[C@@H](CCCNC(=N)N)C(=O)N[C@@H](CC(C)C)C(=O)N1CCC[C@H]1C(=O)O)[C@@H](C)CC	4.4
CC(C)C[C@H](NC(=O)[C@H](CO)NC(=O)[C@@H]1CCCN1C(=O)[C@@H]1CCCN1C(=O)[C@H](C)NC(=O)[C@@H](NC(=O)[C@H](CCCNC(=N)N)NC(=O)[C@H](CCCNC(=N)N)NC(=O)[C@H](Cc1ccccc1)NC(=O)[C@H](CCC(=O)O)NC(=O)[C@H](C)NC(=O)[C@H](CO)NC(=O)[C@@H]1CCCN1)[C@@H](C)O)C(=O)N[C@@H](Cc1ccc(O)cc1)C(=O)NCC(=O)O [MACV Z21-35] (H-PSAEFRRTAPPSLYG-OH)	2

Here's the next entry for you.
Q: Item `CSCC[C@H](NC(=O)[C@H](CCC(N)=O)NC(=O)[C@@H](NC(=O)[C@H](Cc1c[nH]c2ccccc12)NC(=O)[C@@H](N)CCCCN)C(C)C)C(=O)N[C@@H](CS)C(=O)N[C@@H](CO)C(=O)N[C@@H](CCCNC(=N)N)C(=O)N[C@H](C(=O)N[C@@H](CC(C)C)C(=O)N[C@@H](CCCCN)C(=O)N[C@@H](CC(N)=O)C(=O)N[C@@H](CO)C(=O)N[C@@H](Cc1c[nH]cn1)C(=O)N[C@@H](CCC(N)=O)C(=O)O)[C@@H](C)O` has what recorded IC50?
A: 1.1

Data provenance is paper PMC2880318.
